Target: human TLR9 (Homo sapiens (Human))
Sequence (Q9NR96 26-1032): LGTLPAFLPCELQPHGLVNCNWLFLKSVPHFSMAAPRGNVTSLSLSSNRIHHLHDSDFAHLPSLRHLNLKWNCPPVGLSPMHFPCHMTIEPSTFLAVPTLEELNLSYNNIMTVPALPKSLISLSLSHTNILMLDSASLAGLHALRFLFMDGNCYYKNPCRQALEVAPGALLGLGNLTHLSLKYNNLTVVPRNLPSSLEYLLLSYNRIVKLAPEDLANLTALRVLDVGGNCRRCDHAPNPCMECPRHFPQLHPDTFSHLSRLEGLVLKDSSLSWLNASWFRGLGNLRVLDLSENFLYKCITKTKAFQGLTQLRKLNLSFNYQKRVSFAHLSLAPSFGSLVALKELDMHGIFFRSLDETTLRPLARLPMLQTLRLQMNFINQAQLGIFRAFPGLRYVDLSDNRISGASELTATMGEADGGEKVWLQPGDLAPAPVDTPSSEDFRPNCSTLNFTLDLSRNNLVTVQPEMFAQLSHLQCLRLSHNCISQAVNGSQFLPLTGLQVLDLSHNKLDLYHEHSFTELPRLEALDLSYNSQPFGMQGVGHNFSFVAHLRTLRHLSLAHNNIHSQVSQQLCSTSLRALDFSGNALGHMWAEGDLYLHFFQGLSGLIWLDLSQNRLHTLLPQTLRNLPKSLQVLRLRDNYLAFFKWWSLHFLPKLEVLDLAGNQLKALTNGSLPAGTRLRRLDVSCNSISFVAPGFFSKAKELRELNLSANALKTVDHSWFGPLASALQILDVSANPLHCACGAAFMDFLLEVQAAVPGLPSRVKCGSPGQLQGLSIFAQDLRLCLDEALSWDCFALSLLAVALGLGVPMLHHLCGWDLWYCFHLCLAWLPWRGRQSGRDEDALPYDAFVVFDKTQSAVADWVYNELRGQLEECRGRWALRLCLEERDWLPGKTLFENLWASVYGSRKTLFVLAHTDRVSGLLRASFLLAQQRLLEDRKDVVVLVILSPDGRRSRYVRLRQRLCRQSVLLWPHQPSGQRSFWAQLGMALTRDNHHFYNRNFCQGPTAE
Assay: TLR9 inhibition reporter assay (HEK-Blue SEAP);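 further: SEAP driven by an IFN-β minimal promoter with NF-κB and AP-1 sites, read after 22 h, compounds dosed 0.05 nM–50 µM, inhibition scaled between agonist plus DMSO and reference-inhibitor wells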
Details: read-out: TLR9 IC50; HEK-Blue cells overexpressing human TLR9, ODN2006 5 nM stimulation, SEAP reporter
We label by threshold. Values of IC50 strictly beneath 2 µM are 1. Values of 2 µM and up are 0.

>>> cat("Cc1c(-c2[nH]c3ccc(N4CCNCC4=O)nc3c2C(C)C)cn2ncnc2c1C")
0
>>> cat("Cc1c(-c2[nH]c3ccc(C4CCC(N(C)C5CC5)CC4)nc3c2C(C)C)cn2ncnc2c1C (stereo not drawn) [Example 387]")
0
>>> cat("COc1ncnc(OC)c1CN(C)C1CCN(c2ccc3[nH]c(-c4cn5ncnc5c(C)c4C)c(C(C)C)c3n2)CC1")
0
>>> cat("COc1ncc(CN(C)C2CCN(c3ccc4[nH]c(-c5cn6ncnc6c(C)c5C)c(C(C)C)c4n3)CC2)cn1")
1
>>> cat("CCN(C)C1CCN(c2ccc3[nH]c(-c4cn5ncnc5c(C)c4C)c(C(C)C)c3n2)CC1")
0
>>> cat("COc1cc(-c2[nH]c3cc(C)c(C4CCC(NC5CCOC5)CC4)nc3c2C(C)C)cn2ncnc12 (stereo not drawn) [Example 329]")
0
>>> cat("CNC1CCC(c2ccc3[nH]c(-c4cn(C)c5nccnc45)c(C(C)C)c3n2)CC1 (stereo not drawn) [Example 300]")
0
>>> cat("Cc1c(-c2[nH]c3ccc(N4CCC(N(C)Cc5ncccn5)CC4)nc3c2C(C)C)cn2ncnc2c1C [Example 60]")
0
>>> cat("COc1cc(-c2[nH]c3ccc(N4CCN(C(=O)CCN(C)C)CC4)nc3c2C(C)C)cn2ncnc12")
0
>>> cat("COc1cc(-c2[nH]c3ccc(N4CCN(CC(=O)N(C)C)CC4)nc3c2C(C)C)cn2ncnc12")
0
>>> cat("COCc1cc(-c2[nH]c3ccc(C4CCC(NC5COC5)CC4)nc3c2C(C)C)cn2ncnc12 (stereo not drawn) [Example 214]")
1
>>> cat("COc1cc(-c2[nH]c3cc(C)c(C4CCC(N(C)Cc5ncn(C)n5)CC4)nc3c2C(C)C)cn2ncnc12 (stereo not drawn) [Example 332]")
0
>>> cat("CNC1CCC(c2nc3c(C(C)C)c(-c4cc(OC)c5ncnn5c4)[nH]c3cc2F)CC1 (stereo not drawn) [Example 348]")
0
>>> cat("CC(C)c1c(-c2cn(CCS(C)(=O)=O)c3ncccc23)[nH]c2ccc(C3CCC(NC4CCOCC4)CC3)nc12 (stereo not drawn)")
1
>>> cat("Cc1c(-c2[nH]c3ccc(N4CCN(C(=O)CN5CCC5)CC4)nc3c2C(C)C)cn2ncnc2c1C")
0
>>> cat("COc1cc(-c2[nH]c3ccc(C4CCC(NCc5cnc(C)cn5)CC4)nc3c2C(C)C)cn2ncnc12 (stereo not drawn) [Example 196]")
1
>>> cat("COc1cc(-c2[nH]c3ccc(C4CCC(NCc5cnc(C)cn5)CC4)nc3c2C(C)C)cn2ncnc12 (stereo not drawn) [Example 190]")
1
>>> cat("COc1cc(-c2[nH]c3ccc(C4CCC(N(C)CCO)CC4)nc3c2C(C)C)cn2ncnc12 (stereo not drawn) [Example 169]")
1
>>> cat("CC(C)c1c(-c2cc(CO)c3ncnn3c2)[nH]c2ccc(N3CCC(NCC(=O)N(C)C)CC3)nc12 [Example 84]")
0
>>> cat("COc1cc(-c2[nH]c3ccc(C4CCC(NC(C)C)CC4)nc3c2C(C)C)cn2ncnc12 (stereo not drawn) [Example 167]")
1
>>> cat("COc1cc(-c2[nH]c3ccc(N4CCN(CC5CC5)CC4)nc3c2C(C)C)cn2ncnc12")
0
